pIC50: recorded values
- Tgt: human α1G T-type channels (Homo sapiens)
- Sequence (O43497 whole entry): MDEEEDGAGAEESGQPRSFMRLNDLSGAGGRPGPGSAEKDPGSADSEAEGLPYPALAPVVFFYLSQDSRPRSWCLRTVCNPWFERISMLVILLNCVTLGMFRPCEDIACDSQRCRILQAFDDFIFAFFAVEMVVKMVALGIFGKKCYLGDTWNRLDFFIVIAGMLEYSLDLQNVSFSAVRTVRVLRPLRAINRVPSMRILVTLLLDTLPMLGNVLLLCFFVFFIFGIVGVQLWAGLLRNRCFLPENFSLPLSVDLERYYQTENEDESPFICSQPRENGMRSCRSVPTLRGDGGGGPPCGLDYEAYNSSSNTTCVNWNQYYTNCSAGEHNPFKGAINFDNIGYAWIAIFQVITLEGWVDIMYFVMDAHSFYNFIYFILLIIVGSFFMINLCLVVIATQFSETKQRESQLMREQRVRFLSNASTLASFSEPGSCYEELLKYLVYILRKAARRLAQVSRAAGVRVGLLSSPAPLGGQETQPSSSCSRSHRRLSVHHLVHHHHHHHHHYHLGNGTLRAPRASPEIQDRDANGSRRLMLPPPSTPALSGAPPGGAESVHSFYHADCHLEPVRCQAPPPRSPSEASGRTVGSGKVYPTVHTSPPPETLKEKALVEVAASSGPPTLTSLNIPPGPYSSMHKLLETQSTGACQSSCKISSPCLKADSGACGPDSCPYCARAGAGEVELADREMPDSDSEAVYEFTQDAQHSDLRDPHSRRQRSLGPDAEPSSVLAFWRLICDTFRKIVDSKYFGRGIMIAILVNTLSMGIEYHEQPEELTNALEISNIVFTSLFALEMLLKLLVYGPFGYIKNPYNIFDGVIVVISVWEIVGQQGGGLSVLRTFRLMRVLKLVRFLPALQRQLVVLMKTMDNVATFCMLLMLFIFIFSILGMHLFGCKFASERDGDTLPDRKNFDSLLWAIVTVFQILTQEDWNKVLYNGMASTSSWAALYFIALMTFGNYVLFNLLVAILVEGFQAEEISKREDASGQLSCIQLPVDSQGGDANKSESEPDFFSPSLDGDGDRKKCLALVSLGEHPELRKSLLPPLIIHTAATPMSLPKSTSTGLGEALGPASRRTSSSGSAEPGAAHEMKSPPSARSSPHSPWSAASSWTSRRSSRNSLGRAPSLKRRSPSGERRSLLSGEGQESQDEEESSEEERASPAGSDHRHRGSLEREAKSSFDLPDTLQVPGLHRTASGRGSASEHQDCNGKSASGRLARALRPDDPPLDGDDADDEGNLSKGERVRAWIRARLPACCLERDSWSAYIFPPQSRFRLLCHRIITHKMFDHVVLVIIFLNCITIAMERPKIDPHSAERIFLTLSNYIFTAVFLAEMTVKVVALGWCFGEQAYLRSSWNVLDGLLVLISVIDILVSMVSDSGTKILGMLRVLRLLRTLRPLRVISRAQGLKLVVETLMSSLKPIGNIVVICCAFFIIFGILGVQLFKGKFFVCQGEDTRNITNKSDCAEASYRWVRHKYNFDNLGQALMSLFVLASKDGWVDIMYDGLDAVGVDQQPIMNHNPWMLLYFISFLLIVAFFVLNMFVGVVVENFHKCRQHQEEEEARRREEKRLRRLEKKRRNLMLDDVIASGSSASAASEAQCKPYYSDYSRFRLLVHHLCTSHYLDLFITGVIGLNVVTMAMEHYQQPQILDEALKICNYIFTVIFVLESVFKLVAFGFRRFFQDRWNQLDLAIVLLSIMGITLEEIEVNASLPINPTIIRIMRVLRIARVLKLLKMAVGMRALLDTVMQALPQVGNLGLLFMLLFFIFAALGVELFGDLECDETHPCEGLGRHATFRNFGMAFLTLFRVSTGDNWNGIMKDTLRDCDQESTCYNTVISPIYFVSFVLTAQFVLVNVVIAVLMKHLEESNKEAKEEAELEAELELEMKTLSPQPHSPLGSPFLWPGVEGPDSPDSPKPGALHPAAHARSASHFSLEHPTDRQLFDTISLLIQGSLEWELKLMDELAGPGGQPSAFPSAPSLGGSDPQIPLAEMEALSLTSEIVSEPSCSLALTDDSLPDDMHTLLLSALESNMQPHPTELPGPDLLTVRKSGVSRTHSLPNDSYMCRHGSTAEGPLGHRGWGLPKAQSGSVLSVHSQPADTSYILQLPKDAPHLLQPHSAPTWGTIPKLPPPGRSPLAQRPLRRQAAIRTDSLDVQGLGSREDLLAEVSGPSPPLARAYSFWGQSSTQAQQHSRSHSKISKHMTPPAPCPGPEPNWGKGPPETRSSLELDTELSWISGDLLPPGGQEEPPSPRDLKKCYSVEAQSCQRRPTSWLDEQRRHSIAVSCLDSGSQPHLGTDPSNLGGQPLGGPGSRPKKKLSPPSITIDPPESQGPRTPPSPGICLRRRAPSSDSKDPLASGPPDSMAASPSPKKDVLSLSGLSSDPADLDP
- Experiment Summary: T-type calcium channel block, whole cell patch clamp, α1G
- Experimental Parameters: HEK cells stably expressing human α1G; mainly non-inactivated protocol; values above 10,000 nM represented as 10000
pIC50: −log10 of the molar value.

- Smiles Str: "O=S(=O)(NC[C@H]1C[C@H](S(=O)(=O)c2cccc(C(F)(F)F)c2)C1)c1ccc(C(F)(F)F)cc1Cl"
  Tgt: "human α1G T-type channels (Homo sapiens)"
  pIC50: "< 5.00"
- Smiles Str: "O=C(Nc1cccc(C(F)(F)F)n1)[C@H]1C[C@H](S(=O)(=O)c2cccc(C(F)(F)F)c2)C1"
  Tgt: "human α1G T-type channels (Homo sapiens)"
  pIC50: "< 5.00"

Next, consider the following compound.
Fill in reported pIC50 for this entry: O=C(NC[C@H]1C[C@H](S(=O)(=O)c2cccc(C(F)(F)F)c2)C1)c1ccc(F)c(Cl)c1 < 5.00
